- targetOfAssay: HIV-1 protease (Human immunodeficiency virus type 1 group M subtype B, UniProt P04585)
- methodNotes: biochemical
- conditionDescription: dose 30.000 uM; read-out: HIV-1 Protease % Inhib
measurementKind: inhibition at 30 µM (%)

A. O=c1oc2c(c(O)c1C(c1cccc(NCc3ccccc3)c1)C1CC1)CCCCCC2 (stereo not shown) [Example 242]
B. O=c1oc2c(c(O)c1C(c1cccc(NCCc3ccccc3)c1)C1CC1)CCCCCC2 (stereo not shown) [Example 243]
query: When A and B are compared, which has the higher number for inhibition at 30 µM? Answer with the label corresponding to your selection.
result: A

---

inhibition at 1 µM: recorded values
- targetOfAssay: HIV-1 protease (Human immunodeficiency virus type 1 group M subtype B, UniProt P04585)
- methodNotes: biochemical
- conditionDescription: read-out: HIV-1 Protease % Inhib, dose 1.000 uM
# unit: % | format: bare number

{"compound": "CCC(c1cccc(C(=O)NC2c3ccccc3CC2O)c1)c1c(O)c2ccccc2oc1=O (stereo not shown)", "measurementKind": "inhibition at 1 µM", "unitAbbrev": "%", "measured": 10.8}
{"compound": "CC(C)(c1ccccc1)c1c(O)c2ccccc2oc1=O [Example 39, 3-(α,α-dimethylbenzyl)4-hydroxy coumarin]", "measurementKind": "inhibition at 1 µM", "unitAbbrev": "%", "measured": 13.8}

Field: next compound
query: Would you mind telling me what inhibition at 1 µM value was observed for CCC(c1cccc(NC(=O)C(NC(=O)OC(C)(C)C)C(C)C)c1)c1c(O)c2ccccc2oc1=O (stereo not shown) ?
result: 11.5

---

- targetOfAssay: HIV-1 protease (Human immunodeficiency virus type 1 group M subtype B)
- methodNotes: biochemical
- conditionDescription: read-out: HIV-1 Protease % Inhib, dose 100.000 uM
measurementKind: inhibition at 100 µM (%)
State just the number; it will be interpreted in %.

Reference set, count: 2
{"molecule": "CC(c1cccc(C(=O)NCC(=O)N2CCOCC2)c1)c1c(O)c2ccccc2oc1=O (stereo not drawn) [Example 32]", "measurementKind": "inhibition at 100 µM", "unitAbbrev": "%", "measured": 46.5}
{"molecule": "CCC(c1cccc(Br)c1)c1c(O)c2ccccc2oc1=O (stereo not drawn) [Example 71]", "measurementKind": "inhibition at 100 µM", "unitAbbrev": "%", "measured": 80}

query: Which inhibition at 100 µM value is on record for COc1ccc2c(c1)CCCC2c1c(O)c2ccccc2oc1=O (stereo not drawn) [Example 76] ?
result: 96.5

query: Quick one: CCC(CCc1ccccc1)c1c(O)c2ccccc2oc1=O (stereo not drawn) [Example 155]
result: 91.9

query: Would you mind doing CCC(c1ccc(O)cc1)c1c(O)c2ccccc2oc1=O (stereo not drawn) [Example 85] as well?
result: 100

query: Can you handle CCC(c1ccccc1)c1c(O)c2ccc(OCCOCCOCCOC)cc2oc1=O (stereo not drawn) [Example 154] next?
result: 96

query: Then CCC(c1cccc(C(=O)NC2c3ccccc3CC2O)c1)c1c(O)c2ccccc2oc1=O (stereo not drawn) [Example 143] ?
result: 92.1

query: Moving on to the next molecule: CCC(c1ccccc1)c1c(O)c2ccc(OC(C)C)cc2oc1=O (stereo not drawn) [Example 81]
result: 85.3

query: And then CCC(c1ccccc1)c1c(O)c2ccc3ccccc3c2oc1=O (stereo not drawn) [Example 99] , what is it?
result: 43.3

---

- targetOfAssay: HIV-1 protease (Human immunodeficiency virus type 1 group M subtype B, UniProt P04585)
- methodNotes: biochemical
- conditionDescription: read-out: HIV-1 Protease % Inhib, dose 10.000 uM
measurementKind: inhibition at 10 µM (%)
Number only, in %; omit the unit.

{"molecule": "CC(C)CC1CCCCc2c1oc(=O)c(C(c1ccccc1)C1CC1)c2O (centres unmarked) [Example 183]", "inhibition at 10 µM, %": 95.8}
{"molecule": "CC(C)C(c1ccccc1)c1c(O)c2ccccc2oc1=O (centres unmarked) [Example 9]", "inhibition at 10 µM, %": 65}
{"molecule": "CCC(c1ccccc1)c1c(O)c2cc(O)ccc2oc1=O (centres unmarked) [Example 95]", "inhibition at 10 µM, %": 34.7}
{"molecule": "CCC(c1ccccc1)c1c(O)c2ccc(OC)cc2oc1=O (centres unmarked) [Example 88]", "inhibition at 10 µM, %": 108}
{"molecule": "Cc1ccc(S(=O)(=O)n2cncc2C[C@H](NC(=O)OC(C)(C)C)C(=O)Nc2cccc(C(c3c(O)c4c(oc3=O)CCCCCC4)C3CC3)c2)cc1 (some centres unmarked) [Example 199]", "inhibition at 10 µM, %": 114}
{"molecule": "CCC(C)C(NC(=O)c1cccc(C(C)c2c(O)c3ccccc3oc2=O)c1)C(=O)NCc1ccccn1 (centres unmarked) [Example 30]", "inhibition at 10 µM, %": 65.3}
{"molecule": "CC(O)CC(c1ccccc1)c1c(O)c2ccccc2oc1=O (centres unmarked) [Example 8]", "inhibition at 10 µM, %": 23.7}
{"molecule": "O=c1oc2c(c(O)c1C(c1cccc(NS(=O)(=O)c3ccccc3Cl)c1)C1CC1)CCCCCC2 (centres unmarked) [Example 293]", "inhibition at 10 µM, %": 105}

query: Please give the measured inhibition at 10 µM for this molecule: CC(C)C(c1cccc(NS(=O)(=O)c2cccnc2)c1)c1c(O)c2c(oc1=O)CCCCCC2 (centres unmarked) [Example 417]
result: 102

---

- targetOfAssay: HIV-1 protease (Human immunodeficiency virus type 1 group M subtype B, UniProt P04585)
- methodNotes: biochemical
- conditionDescription: read-out: HIV-1 Protease % Inhib, dose 0.123 uM
measurementKind: inhibition at 0.123 µM (%)
A number alone suffices; assume %.

{"compound": "CCCCCCCCS(=O)(=O)Nc1cccc(C(c2c(O)c3c(oc2=O)CCCCCC3)C2CC2)c1 (stereo not shown)", "unitAbbrev": "%", "inhibition at 0.123 µM": 39.4}

query: Param readout = inhibition at 0.123 µM; param system = HIV-1 protease (Human immunodeficiency virus type 1 group M subtype B, UniProt P04585); param query = COC(=O)c1cccc(S(=O)(=O)Nc2cccc(C(c3c(O)c4c(oc3=O)CCCCCC4)C3CC3)c2)c1 (stereo not shown) ; response: value
result: 71.4

query: Quick one: CCC(c1cccc(NC(=O)CCNC(=O)OC(C)(C)C)c1)c1c(O)c2c(oc1=O)CCCCCC2 (stereo not shown)
result: 52.1

query: What do you have for CCCC(c1cccc(NS(=O)(=O)c2cccnc2)c1)c1c(O)c2c(oc1=O)CCCCCC2 (stereo not shown) ?
result: 103

query: Field entry: O=c1oc2c(c(O)c1C(c1cccc(NS(=O)(=O)c3ccc(Cl)s3)c1)C1CC1)CCCCCC2 (stereo not shown)
result: 74.7

query: Another: O=c1oc2c(c(O)c1C(c1cccc(NS(=O)(=O)c3cccc(Br)c3)c1)C1CC1)CCCCCC2 (stereo not shown)
result: 80.4

query: Now this one: CCC1CCCCCc2c1oc(=O)c(C(c1ccccc1)C1CC1)c2O (stereo not shown)
result: 52.3

query: Another: O=C(NCc1ccc(S(=O)(=O)Nc2cccc(C(c3c(O)c4c(oc3=O)CCCCCC4)C3CC3)c2)s1)c1ccccc1 (stereo not shown)
result: 14.6

query: // repeat for CCCC(c1cccc(NS(=O)(=O)c2ccc(Cl)cc2)c1)c1c(O)c2c(oc1=O)CCCCCC2 (stereo not shown) and report
result: 92.9

query: What about this compound? CC(C)C(c1cccc(NS(=O)(=O)c2ccc(C#N)cc2)c1)c1c(O)c2c(oc1=O)CCCCCC2 (stereo not shown)
result: 65.3

---

In this section, each of the molecules is paired with its reported inhibition at 3.3 µM.
- targetOfAssay: HIV-1 protease (Human immunodeficiency virus type 1 group M subtype B)
- methodNotes: biochemical
- conditionDescription: read-out: HIV-1 Protease % Inhib, dose 3.300 uM
Reply numerically in %, unit not repeated.

{"molecule": "CCC1CCCCc2c1oc(=O)c(C(c1ccccc1)C1CC1)c2O (stereo not shown) [Example 185]", "inhibition at 3.3 µM [%]": 92.6}
{"molecule": "CCCCC1CCCCCc2c1oc(=O)c(C(c1ccccc1)C1CC1)c2O (stereo not shown) [Example 129]", "inhibition at 3.3 µM [%]": 106}

query: Form field: reported inhibition at 3.3 µM of O=c1oc2c(c(O)c1C(c1cccc(NS(=O)(=O)c3ccccc3)c1)C1CC1)CCCCCC2 (stereo not shown) [Example 319]
result: 94.3

query: Try this molecule next: O=c1oc2c(c(O)c1C(c1cccc(NS(=O)(=O)c3cccc4cccnc34)c1)C1CC1)CCCCCC2 (stereo not shown) [Example 263]
result: 98.7

---

- targetOfAssay: HIV-1 protease (Human immunodeficiency virus type 1 group M subtype B, UniProt P04585)
- methodNotes: biochemical
- conditionDescription: dose 1.100 uM; read-out: HIV-1 Protease % Inhib
measurementKind: inhibition at 1.1 µM (%)

These solved cases illustrate the format of a correct answer.
{"compound": "O=c1oc2c(c(O)c1C(c1cccc(NC(=S)Nc3ccccc3)c1)C1CC1)CCCCCC2 (stereo not shown)", "measured": 40.3}
{"compound": "O=c1oc2c(c(O)c1C(c1ccccc1)C1CC1)CCCCC2CC1CCCCO1 (stereo not shown)", "measured": 35.9}

1. CCCC(c1cccc(NC(=O)OCc2ccccc2)c1)c1c(O)c2c(oc1=O)CCCCCC2 (stereo not shown)
2. CN(C)c1cccc2c(S(=O)(=O)Nc3cccc(C(c4c(O)c5c(oc4=O)CCCCCC5)C4CC4)c3)cccc12 (stereo not shown)
query: Among 1 and 2 , whose measured inhibition at 1.1 µM is the smaller figure? Answer by quoting the chosen item's label.
result: 1
(1: 28.5%, 2: 42.3%)
